tested.on: Pol I(KF) (Klenow fragment of E. coli DNA polymerase I), N-His6/D424A/L744C/C907S, termed WT (Escherichia coli, UniProt P00582, C907S/D424A/E710Q/L744C)
assay.notes: stopped-flow fluorescence titration, T
result.type: Kd (µM)
Please reply with the bare figure in µM and do not write the unit itself.

For the compound shown here, Nc1nc2c(ncn2[C@H]2C[C@H](O)[C@@H](COP(=O)(O)OP(=O)(O)OP(=O)(O)O)O2)c(=O)[nH]1 [dGTP] , give the reported Kd.
10

---

tested.on: Pol I(KF) (Klenow fragment of E. coli DNA polymerase I), N-His6/D424A/L744C/C907S, termed WT (Escherichia coli, UniProt P00582, C907S/D424A/L744C/Y766A)
assay.notes: stopped-flow fluorescence titration, T
result.type: pKd
Lab note: report pKd as minus log10 of the concentration in molar units, number only.

Returns the measured pKd for the input compound. Input: Nc1nc2c(ncn2[C@H]2C[C@H](O)[C@@H](COP(=O)(O)OP(=O)(O)OP(=O)(O)O)O2)c(=O)[nH]1
5.54

Now consider the entry below.
Recorded pKd of Nc1nc2c(ncn2[C@@H]2O[C@H](COP(=O)(O)OP(=O)(O)OP(=O)(O)O)[C@@H](O)[C@H]2O)c(=O)[nH]1 , please.
4.89

---

tested.on: Pol I(KF) (Klenow fragment of E. coli DNA polymerase I), N-His6/D424A/L744C/C907S, termed WT (Escherichia coli, UniProt P00582, C907S/D424A/E710A/L744C)
assay.notes: stopped-flow fluorescence titration, T
result.type: Kd (µM)
Field format: number, assumed µM, no unit text.

GET /values?readout=Kd&item= Nc1nc2c(ncn2[C@H]2C[C@H](O)[C@@H](COP(=O)(O)OP(=O)(O)OP(=O)(O)O)O2)c(=O)[nH]1
46
